Would you kindly list inhibition at 5 min for each of these molecules?
biological target: CYP2C8 (Homo sapiens); construct: Pooled human microsomes were obtained from Sekisui XenoTech, KS; tissue Sekisui XenoTech, KS; host or cells: pooled human liver microsomes; assay: CYP Inhibition Assay (CYP2C8, human liver microsomes, paclitaxel substrate); format: in vitro ADME; details: pH 7.4; pooled human liver microsomes 0.1 mg/mL, probe substrate paclitaxel

Worked set:
CN([C@H]1CCC2=Cc3c(cnn3-c3ccc(F)cc3)C[C@]2(C(=O)c2ncc(C(F)(F)F)s2)C1)S(=O)(=O)c1ccn(C)n1	75 to 90%
Cn1cc(S(=O)(=O)[C@H]2CCC3=Cc4c(cnn4-c4ccc(F)cc4)C[C@]3(C(=O)c3ccc(C(F)(F)F)cn3)C2)cn1	≤ 25%
Cn1cc(S(=O)(=O)N(CC(F)(F)F)[C@H]2CCC3=Cc4c(cnn4-c4ccc(F)cc4)C[C@]3(C(=O)c3ncc(C(F)(F)F)s3)C2)nn1	25 to 50%
Cn1ccc(S(=O)(=O)N(CC2CC2)[C@H]2CCC3=Cc4c(cnn4-c4ccc(F)cc4)C[C@]3(C(=O)c3ncc(C(F)(F)F)s3)C2)n1	25 to 50%
Cn1ccc(S(=O)(=O)N([C@H]2CCC3=Cc4c(cnn4-c4ccc(F)cc4)C[C@]3(C(=O)c3cc(Cl)ccn3)C2)[C@H]2C[C@@](C)(O)C2)n1	≤ 25%
Cn1ncc(S(=O)(=O)N(CC(C)(C)O)[C@H]2CCC3=Cc4c(cnn4-c4ccc(F)cc4)C[C@]3(C(=O)c3ncc(C(F)(F)F)s3)C2)n1	50 to 75%
Cn1ccc(S(=O)(=O)N(CC(C)(C)O)[C@H]2CCC3=Cc4c(cnn4-c4ccc(F)cc4)C[C@]3(C(=O)c3ncc(C(F)(F)F)s3)C2)n1	50 to 75%
Cn1ncc(S(=O)(=O)N(C2CC2)[C@H]2CCC3=Cc4c(cnn4-c4ccc(F)cc4)C[C@]3(C(=O)c3cc(C(F)(F)F)ccn3)C2)n1	50 to 75%

Give me inhibition at 5 min for each of these molecules, listed below.
1. O=C(c1cc(F)ccn1)[C@]12Cc3cnn(-c4ccc(F)cc4)c3C=C1CC[C@H](N(C1CC1)S(=O)(=O)c1ccc(F)cc1)C2
2. Cn1ccnc1S(=O)(=O)N(C1CC1)[C@H]1CCC2=Cc3c(cnn3-c3ccc(F)cc3)C[C@]2(C(=O)c2ncc(C(F)(F)F)s2)C1

1. 50 to 75%
2. 75 to 90%

* * *

So I've got a bunch of molecules here, and I need their inhibition at 5 min values.
Molecular target: CYP2C8 (Homo sapiens, UniProt P10632)
Construct: Pooled human microsomes were obtained from Sekisui XenoTech, KS; tissue Sekisui XenoTech, KS; host or cells: pooled human liver microsomes
Sequence (P10632 1-490): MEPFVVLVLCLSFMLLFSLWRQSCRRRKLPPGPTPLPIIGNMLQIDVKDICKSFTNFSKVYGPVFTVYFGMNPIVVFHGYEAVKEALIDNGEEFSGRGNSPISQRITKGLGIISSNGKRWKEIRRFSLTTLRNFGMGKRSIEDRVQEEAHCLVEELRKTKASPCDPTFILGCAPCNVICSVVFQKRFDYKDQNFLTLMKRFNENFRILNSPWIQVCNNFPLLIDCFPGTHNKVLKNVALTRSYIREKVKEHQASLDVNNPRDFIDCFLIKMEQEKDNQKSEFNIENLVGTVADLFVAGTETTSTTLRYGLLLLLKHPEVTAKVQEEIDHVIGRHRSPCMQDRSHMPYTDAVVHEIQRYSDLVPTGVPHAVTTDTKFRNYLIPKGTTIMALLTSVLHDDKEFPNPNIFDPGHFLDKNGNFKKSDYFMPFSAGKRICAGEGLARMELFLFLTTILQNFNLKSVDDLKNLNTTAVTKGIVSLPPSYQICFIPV
Test: CYP Inhibition Assay (CYP2C8, human liver microsomes, paclitaxel substrate)
Type: in vitro ADME
Settings: pH 7.4; pooled human liver microsomes 0.1 mg/mL, probe substrate paclitaxel

Field: example entries. Status: answers known.
Cn1ccc(S(=O)(=O)N(CC(F)(F)F)[C@H]2CCC3=Cc4c(cnn4-c4ccc(F)cc4)C[C@]3(C(=O)c3cc(C(F)(F)F)ccn3)C2)n1 [Example 111]	25 to 50%
Cn1cnc(S(=O)(=O)N(C2CC2)[C@H]2CCC3=Cc4c(cnn4-c4ccc(F)cc4)C[C@]3(C(=O)c3ncc(C(F)(F)F)s3)C2)n1 [Example 305]	25 to 50%

Next, consider the following molecule.
# return recorded inhibition at 5 min for entry Cn1ccc(S(=O)(=O)N([C@H]2CCC3=Cc4c(cnn4-c4ccc(F)cc4)C[C@]3(C(=O)c3ncc(C(F)(F)F)s3)C2)[C@H]2C[C@@](C)(O)C2)n1 [Example 277]
≤ 25%
